meta.source: ChEMBL document CHEMBL5154720

I'd be grateful if you could share measured inhibition for these entries.
- TARGET OR TEST SYSTEM: Replicase polyprotein 1ab (Severe acute respiratory syndrome coronavirus 2)
- PROTOCOL SUMMARY: Inhibition of SARS-CoV-2 3CL protease using MCA-AVLQSGFR-Lys(Dnp)-Lys-NH2 fluorogenic peptide as substrate incubated for 30 mins at 50 uM and measured by FRET assay relative to control
Respond with the bare value in %.

Short answer for Cc1cccc(C)c1NC(=O)CSc1nc2c(cc1C#N)C(=O)CCC2 : inhibition was 15.2

Query NC(=O)CN1C(=O)C(O)(CC(=O)/C=C\c2ccc3c(c2)OCO3)c2ccccc21 (stereo not drawn) yields inhibition of 55.2

Per the record, NS(=O)(=O)c1ccc(NC(=O)C(=O)c2ccc[nH]2)cc1 has inhibition of 31.4

According to the records, this compound Cn1c(CN2CCC(C(N)=O)CC2)c(C#N)c2ccccc21 displays inhibition of 24.1

// inhibition value for CC1=C(C#N)C(=O)N(CCCO)C(=O)/C1=N\Nc1ccc(Br)cc1C(=O)O : 65.5

inhibition in this record for CN(C(=O)CN1CC(C=O)c2ccccc21)c1ccccc1 (stereo not drawn) : 32.6

Please fill in: inhibition reported for O=C(/C=C/c1cn(CC(O)CN2CCOCC2)c2ccccc12)c1cccs1 (stereo not drawn) = 22.3

Record O=C(CC1C(=O)NCCN1C(=O)CCl)Nc1cccc(Cl)c1 (stereo not drawn) . Reported inhibition: 87.6
